# Test system: DMS 273 small cell lung
# protocol.summary: NCI tumour cell line growth inhibition, 48 h
measured.property: TGI

Example cases with answers are listed next.
>  <molecule>
O=C(O)C[C@@H](Cl)[C@H](NC(=O)OCc1ccccc1)C(=O)O

>  <TGI>
> 100 µM

$$$$
>  <molecule>
COc1ccc(C2=NN(c3ccccc3)C[N+](c3ccc(C)cc3)=N2)cc1

>  <TGI>
> 10 µM

$$$$
>  <molecule>
O=C(O)/C(Cl)=C(\Cl)C(=O)c1ccccc1

>  <TGI>
> 100 µM

$$$$
>  <molecule>
Cc1[nH]c(=O)[nH]c(=O)c1/C=C/C(=O)O (tested in a mixture with another compound)

>  <TGI>
> 625 µM

$$$$
>  <molecule>
O=C1C(=O)N(c2ccc(Cl)cc2)C(=O)C(=O)C1c1nc2ccccc2o1

>  <TGI>
> 100 µM

$$$$
>  <molecule>
O=C1C=CC2OC(c3ccccc3)C(O)C2O1 (stereo not given)

>  <TGI>
18.2 µM

$$$$
>  <molecule>
CCC(=O)N1C(=O)OCC1C(C)C (stereo not given)

>  <TGI>
> 100 µM

$$$$
>  <molecule>
COC(=O)c1cc(C(=O)OC)c(CC(=O)C(=O)NC2C3CC4CC(C3)CC2C4)nc1CC(=O)C(=O)NC1C2CC3CC(C2)CC1C3 (stereo not given)

>  <TGI>
> 100 µM

$$$$

Qu. # input molecule: COc1cc(/C=C(\NC(=O)c2ccccc2)c2nc3ccc4c(c3[nH]2)C(=O)c2ccccc2C4=O)cc(OC)c1OC ; wanted: its TGI
Ans. > 100 µM

Qu. Value lookup for TGI; key = CC(CC(=O)N1C(=O)C(C)(C)[C@@H](O)[C@H]1CC(C)C(Cl)(Cl)Cl)C(Cl)(Cl)Cl (stereo not given in full)
Ans. > 100 µM

Qu. Could you tell me which TGI is on file for CC(=O)OCC1OC(n2ccc(=O)[nH]c2=O)C(OC(C)=O)C(OC(C)=O)C1OC(C)=O (stereo not given) ?
Ans. > 100 µM

Qu. Fill blank: measured TGI of the molecule C[C@]12CCC(=O)C(OC(=O)c3ccc([N+](=O)[O-])cc3)=C1CCC2=O is ____.
Ans. > 100 µM

Qu. So what does the record say about TGI for Cc1c2ccn(O)cc2c(C)c2c1nc1ccccc12 ?
Ans. 31.1 µM

Qu. So what's the measured TGI for this one? CN1CN(C2OC(CO)C(O)C2O)c2nc(N)[nH]c(=O)c21 (stereo not given)
Ans. > 100 µM

Qu. Name the reported TGI value associated with the molecule N#CC12CCC1C1CCCCC12N1CCSCC1 (stereo not given)
Ans. > 100 µM

---

# System: SNB-75 CNS
# protocol.summary: NCI tumour cell line growth inhibition, 48 h
Reported GI50 values for the following compounds.

>  <compound>
CC/C=C\C[C@H](F)C/C=C1/C(=O)C=C[C@@H]1C/C=C\CCCC(=O)OC

>  <endpoint.value>
5.64 µM

$$$$
>  <compound>
COC1C(O)CC(OC2CC(OC3CC(O[C@@H]4C(=O)c5c(cc6cc(OC7CC(OC8CC(O)C(O)C(C)O8)C(O)C(C)O7)c(C)c(O)c6c5O)CC4[C@H](OC)C(=O)O)OC(C)C3O)OC(C)C2O)OC1C (some centres undefined)

>  <endpoint.value>
1.03 µM

$$$$
>  <compound>
O=C1C(Cl)=C(Nc2ccc(Nc3ccccc3)c(NC3=C(Cl)C(=O)c4ccccc4C3=O)c2)C(=O)c2ccccc21

>  <endpoint.value>
2.3 µM

$$$$

Kindly consider the entry below.
Qu. So what's the measured GI50 for this one? O=C(Nc1ccc(Cc2ccccc2)cc1)Nc1nn(C(=O)Nc2ccc(Cc3ccccc3)cc2)c2ccccc12
Ans. 33.8 µM
